target: Acetylcholinesterase (AChE) (EC 3.1.1.7) (Homo sapiens); construct: purchased Sigma-Aldrich Pte Ltd (Nucleos, Singapore); experiment: AChE inhibition assay (modified Ellman's method); assay type: biochemical

- Compound: "C=C(C)[C@@H]1CC[C@]2(C(=O)O)CC[C@]3(C)[C@H](CC[C@@H]4[C@@]5(C)CC[C@H](O)C(C)(C)[C@@H]5CC[C@]43C)[C@@H]12"
  Prefix operator: "="
  IC50 (µM): 62
- Compound: "O=C(O)c1ccc(O)c(O)c1"
  Prefix operator: ">"
  IC50 (µM): 100
- Compound: "COc1cc(C(=O)O)cc(OC)c1O"
  Prefix operator: ">"
  IC50 (µM): 100
- Compound: "C=C(C)[C@@H]1CC[C@]2(CO)CC[C@]3(C)[C@H](CC[C@@H]4[C@@]5(C)CC[C@H](O)C(C)(C)[C@@H]5CC[C@]43C)[C@@H]12"
  Prefix operator: "="
  IC50 (µM): 93.4
- Compound: "C=C(C)[C@@H]1CC[C@]2(OO)CC[C@]3(C)C(CCC4[C@@]5(C)CC[C@H](O)C(C)(C)C5CC[C@]43C)C12 (stereo partly shown)"
  Prefix operator: "="
  IC50 (µM): 83.9
- Compound: "CC1(C)OC(=O)C23CCC1C2CCC1(C)C3CCC2C3(C)CCC(O)C(C)(C)C3CCC21C (stereo not drawn) [Compound 1, (3β)-hopan-3-ol-28,22-olide]"
  Prefix operator: "="
  IC50 (µM): 79.5
- Compound: "COC(=O)C(Cc1ccc(O)cc1)C(=O)OC"
  Prefix operator: ">"
  IC50 (µM): 100
- Compound: "COc1cc(C=O)ccc1O"
  Prefix operator: ">"
  IC50 (µM): 100
- Compound: "CC1(C)CC[C@]23CC[C@]4(C)C(CCC5[C@@]6(C)CC[C@H](OC=O)C(C)(C)C6CC[C@]54C)C2[C@H]1OC3=O (stereo partly shown)"
  Prefix operator: "="
  IC50 (µM): 86.5
- Compound: "CC1(C)CC[C@]23CC[C@]4(C)C(CCC5[C@@]6(C)CC[C@H](O)C(C)(C)C6CC[C@]54C)C2[C@H]1OC3=O (stereo partly drawn) [Compound 10, 3β-hydroxy-18α-olean-28,19β-olide]"
  Prefix operator: ">"
  IC50 (µM): 100
- Compound: "COC1=CC(=O)C=C(OC)C1=O"
  Prefix operator: "="
  IC50 (µM): 54.4
- Compound: "C=C(C)[C@@H]1CC[C@]2(C)CC[C@]3(C)[C@H](CC[C@@H]4[C@@]5(C)CC[C@H](O)C(C)(C)[C@@H]5CC[C@]43C)[C@@H]12"
  Prefix operator: "="
  IC50 (µM): 75.7
- Compound: "Cc1cc(O)c2c(c1)C(=O)c1cccc(O)c1C2=O"
  Prefix operator: "="
  IC50 (µM): 77.3

* * *

target: Acetylcholinesterase (AChE) (EC 3.1.1.7) (Homo sapiens, UniProt P22303); construct: purchased Sigma-Aldrich Pte Ltd (Nucleos, Singapore); assay: AChE inhibition assay (modified Ellman's method); assay type: biochemical; details: read-out: IC50 AChE; average of 3 replicates ± SD; substrate acetylthiocholine, pH 8.0
Sequence (P22303 32-614): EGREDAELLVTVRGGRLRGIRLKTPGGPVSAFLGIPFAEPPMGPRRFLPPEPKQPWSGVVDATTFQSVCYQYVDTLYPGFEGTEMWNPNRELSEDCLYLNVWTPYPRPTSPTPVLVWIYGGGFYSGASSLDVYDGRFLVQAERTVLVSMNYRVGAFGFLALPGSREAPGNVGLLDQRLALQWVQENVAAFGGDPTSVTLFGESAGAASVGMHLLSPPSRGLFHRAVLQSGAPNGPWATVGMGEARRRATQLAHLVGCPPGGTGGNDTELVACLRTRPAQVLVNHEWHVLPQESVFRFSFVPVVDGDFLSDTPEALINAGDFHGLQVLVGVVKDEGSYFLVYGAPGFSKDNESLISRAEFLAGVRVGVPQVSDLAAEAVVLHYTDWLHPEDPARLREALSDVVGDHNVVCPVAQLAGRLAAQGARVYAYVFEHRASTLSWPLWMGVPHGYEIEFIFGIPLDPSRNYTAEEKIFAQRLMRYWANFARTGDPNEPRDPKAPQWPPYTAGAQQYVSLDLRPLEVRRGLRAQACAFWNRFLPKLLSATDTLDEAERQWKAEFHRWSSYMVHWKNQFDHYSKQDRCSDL
Value type: IC50 (µM)

- Compound: "C=C(C)[C@@H]1CC[C@]2(C(=O)O)CC[C@]3(C)C(CCC4[C@@]5(C)CCC(=O)C(C)(C)C5CC[C@]43C)C12 (stereo partly shown)"
  Reported: 94.6
